Origin of values: the supplement of paper PMC5998384

Exercise: state measured melting temperature for each of the sequences provided.
system: HeLa Kyoto; assay: melting temperature (median over replicates), in situ; higher = more thermally stable; details: cell cycle stage: G1/S;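 note: HeLa Kyoto cells synchronized by double thymidine or nocodazole block, proteins quantified by TMT10plex mass spectrometry, three independent biological replicates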
For clarity, give the value followed by its unit.

Please give melting temperature for each item listed below.
1. MLAARLVCLRTLPSRVFHPAFTKASPVVKNSITKNQWLLTPSREYATKTRIGIRRGRTGQELKEAALEPSMEKIFKIDQMGRWFVAGGAAVGLGALCYYGLGLSNEIGAIEKAVIWPQYVKDRIHSTYMYLAGSIGLTALSAIAISRTPVLMNFMMRGSWVTIGVTFAAMVGAGMLVRSIPYDQSPGPKHLAWLLHSGVMGAVVAPLTILGGPLLIRAAWYTAGIVGGLSTVAMCAPSEKFLNMGAPLGVGLGLVFVSSLGSMFLPPTTVAGATLYSVAMYGGLVLFSMFLLYDTQKVIKRAEVSPMYGVQKYDPINSMLSIYMDTLNIFMRVATMLATGGNRKK [GHITM]
2. MGLCKCPKRKVTNLFCFEHRVNVCEHCLVANHAKCIVQSYLQWLQDSDYNPNCRLCNIPLASRETTRLVCYDLFHWACLNERAAQLPRNTAPAGYQCPSCNGPIFPPTNLAGPVASALREKLATVNWARAGLGLPLIDEVVSPEPEPLNTSDFSDWSSFNASSTPGPEEVDSASAAPAFYSQAPRPPASPGRPEQHTVIHMGNPEPLTHAPRKVYDTRDDDRTPGLHGDCDDDKYRRRPALGWLARLLRSRAGSRKRPLTLLQRAGLLLLLGLLGFLALLALMSRLGRAAADSDPNLDPLMNPHIRVGPS [ZFPL1]
3. MEAVLTEELDEEEQLLRRHRKEKKELQAKIQGMKNAVPKNDKKRRKQLTEDVAKLEKEMEQKHREELEQLKLTTKENKIDSVAVNISNLVLENQPPRISKAQKRREKKAALEKEREERIAEAEIENLTGARHMESEKLAQILAARQLEIKQIPSDGHCMYKAIEDQLKEKDCALTVVALRSQTAEYMQSHVEDFLPFLTNPNTGDMYTPEEFQKYCEDIVNTAAWGGQLELRALSHILQTPIEIIQADSPPIIVGEEYSKKPLILVYMRHAYGLGEHYNSVTRLVNIVTENCS [OTUD6B]
4. MSQAEFEKAAEEVRHLKTKPSDEEMLFIYGHYKQATVGDINTERPGMLDFTGKAKWDAWNELKGTSKEDAMKAYINKVEELKKKYGI [DBI]
5. MEVPPPAPRSFLCRALCLFPRVFAAEAVTADSEVLEERQKRLPYVPEPYYPESGWDRLRELFGKDEQQRISKDLANICKTAATAGIIGWVYGGIPAFIHAKQQYIEQSQAEIYHNRFDAVQSAHRAATRGFIRYGWRWGWRTAVFVTIFNTVNTSLNVYRNKDALSHFVIAGAVTGSLFRINVGLRGLVAGGIIGALLGTPVGGLLMAFQKYSGETVQERKQKDRKALHELKLEEWKGRLQVTEHLPEKIESSLQEDEPENDAKKIEALLNLPRNPSVIDKQDKD [TIMMDC1]
6. MAAQKINEGLEHLAKAEKYLKTGFLKWKPDYDSAASEYGKAAVAFKNAKQFEQAKDACLREAVAHENNRALFHAAKAYEQAGMMLKEMQKLPEAVQLIEKASMMYLENGTPDTAAMALERAGKLIENVDPEKAVQLYQQTANVFENEERLRQAVELLGKASRLLVRGRRFDEAALSIQKEKNIYKEIENYPTCYKKTIAQVLVHLHRNDYVAAERCVRESYSIPGFNGSEDCAALEQLLEGYDQQDQDQVSDVCNSPLFKYMDNDYAKLGLSLVVPGGGIKKKSPATPQAKPDGVTATAADEEEDEYSGGLC [NAPG]
7. MSRLRALLGLGLLVAGSRVPRIKSQTIACRSGPTWWGPQRLNSGGRWDSEVMASTVVKYLSQEEAQAVDQELFNEYQFSVDQLMELAGLSCATAIAKAYPPTSMSRSPPTVLVICGPGNNGGDGLVCARHLKLFGYEPTIYYPKRPNKPLFTALVTQCQKMDIPFLGEMPAEPMTIDELYELVVDAIFGFSFKGDVREPFHSILSVLKGLTVPIASIDIPSGWDVEKGNAGGIQPDLLISLTAPKKSATQFTGRYHYLGGRFVPPALEKKYQLNLPPYPDTECVYRLQ [APOA1BP]
8. MADIDNKEQSELDQDLDDVEEVEEEETGEETKLKARQLTVQMMQNPQILAALQERLDGLVETPTGYIESLPRVVKRRVNALKNLQVKCAQIEAKFYEEVHDLERKYAVLYQPLFDKRFEIINAIYEPTEEECEWKPDEEDEISEELKEKAKIEDEKKDEEKEDPKGIPEFWLTVFKNVDLLSDMVQEHDEPILKHLKDIKVKFSDAGQPMSFVLEFHFEPNEYFTNEVLTKTYRMRSEPDDSDPFSFDGPEIMGCTGCQIDWKKGKNVTLKTIKKKQKHKGRGTVRTVTKTVSNDSFFNFFAPPEVPESGDLDDDAEAILAADFEIGHFLRERIIPRSVLYFTGEAIEDDDDDYDEEGEEADEEGEEEGDEENDPDYDPKKDQNPAECKQQ [NAP1L1]

Solution:
["54.7 °C", "57.4 °C", "49.9 °C", "53.7 °C", "55.6 °C", "49.6 °C", "56.4 °C", "49.7 °C"]

Please give melting temperature for each item listed below.
1. MMAAGAALALALWLLMPPVEVGGAGPPPIQDGEFTFLLPAGRKQCFYQSAPANASLETEYQVIGGAGLDVDFTLESPQGVLLVSESRKADGVHTVEPTEAGDYKLCFDNSFSTISEKLVFFELIFDSLQDDEEVEGWAEAVEPEEMLDVKMEDIKESIETMRTRLERSIQMLTLLRAFEARDRNLQEGNLERVNFWSAVNVAVLLLVAVLQVCTLKRFFQDKRPVPT [TMED1]
2. MADAAPQLGKRKRELDVEEAHAASTEEKEAGVGNGTCAPVRLPFSGFRLQKVLRESARDKIIFLHGKVNEASGDGDGEDAVVILEKTPFQVEQVAQLLTGSPELQLQFSNDIYSTYHLFPPRQLNDVKTTVVYPATEKHLQKYLRQDLRLIRETGDDYRNITLPHLESQSLSIQWVYNILDKKAEADRIVFENPDPSDGFVLIPDLKWNQQQLDDLYLIAICHRRGIRSLRDLTPEHLPLLRNILHQGQEAILQRYRMKGDHLRVYLHYLPSYYHLHVHFTALGFEAPGSGVERAHLLAEVIENLECDPRHYQQRTLTFALRADDPLLKLLQEAQQS [DCPS]

Solution:
55.1 °C
56.3 °C
